experimental.target: (H+/K+)-ATPase (Canis lupus familiaris)
Construct: The microsomes retained at the 15%-30% sucrose interface, after centrifugation at 250,000×g for sixty minutes, were used as the source of (H^+/K^+)-ATPase; from tissue; host or cells: gastric glandular mucosa of mongrel dogs (microsomal fraction, lyophilized)
Sequence (P50996 whole entry): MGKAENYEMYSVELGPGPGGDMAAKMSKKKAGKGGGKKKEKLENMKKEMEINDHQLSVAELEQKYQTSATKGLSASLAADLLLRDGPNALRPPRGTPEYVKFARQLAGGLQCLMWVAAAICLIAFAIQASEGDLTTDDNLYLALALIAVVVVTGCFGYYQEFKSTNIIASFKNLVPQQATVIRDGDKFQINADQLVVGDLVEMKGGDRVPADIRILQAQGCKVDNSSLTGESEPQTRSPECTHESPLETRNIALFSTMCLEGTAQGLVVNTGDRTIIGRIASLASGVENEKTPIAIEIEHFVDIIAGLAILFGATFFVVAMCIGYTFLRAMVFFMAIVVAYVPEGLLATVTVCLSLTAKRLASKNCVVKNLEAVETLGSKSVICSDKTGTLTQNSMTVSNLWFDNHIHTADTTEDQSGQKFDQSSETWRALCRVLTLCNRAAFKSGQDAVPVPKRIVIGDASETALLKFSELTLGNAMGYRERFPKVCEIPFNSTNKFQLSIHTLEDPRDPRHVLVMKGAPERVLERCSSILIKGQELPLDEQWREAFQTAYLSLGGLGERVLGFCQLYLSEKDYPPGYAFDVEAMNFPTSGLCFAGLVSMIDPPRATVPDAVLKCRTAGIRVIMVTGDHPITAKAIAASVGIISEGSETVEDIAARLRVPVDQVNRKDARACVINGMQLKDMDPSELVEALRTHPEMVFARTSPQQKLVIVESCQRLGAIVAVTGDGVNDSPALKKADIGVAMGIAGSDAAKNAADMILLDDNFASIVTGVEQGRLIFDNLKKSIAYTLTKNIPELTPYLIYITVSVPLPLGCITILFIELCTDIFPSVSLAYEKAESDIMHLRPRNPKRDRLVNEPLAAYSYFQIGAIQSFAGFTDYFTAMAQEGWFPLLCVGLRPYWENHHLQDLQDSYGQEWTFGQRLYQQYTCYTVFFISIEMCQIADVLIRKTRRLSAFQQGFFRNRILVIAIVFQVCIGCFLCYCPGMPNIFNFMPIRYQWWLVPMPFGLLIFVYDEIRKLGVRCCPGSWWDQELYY
Sequence (P33704 whole entry partner): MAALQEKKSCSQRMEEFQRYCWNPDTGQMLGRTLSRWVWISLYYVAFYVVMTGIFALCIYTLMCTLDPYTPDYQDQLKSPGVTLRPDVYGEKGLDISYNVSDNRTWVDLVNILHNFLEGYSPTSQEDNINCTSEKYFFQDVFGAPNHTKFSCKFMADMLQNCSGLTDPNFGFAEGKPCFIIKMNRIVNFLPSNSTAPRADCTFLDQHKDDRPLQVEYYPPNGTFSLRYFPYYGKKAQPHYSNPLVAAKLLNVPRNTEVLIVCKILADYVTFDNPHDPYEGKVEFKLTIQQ
protocol.description: Inhibition of (H+/K+)-ATPase from canine gastric mucosa (inorganic phosphate release)
Type: biochemical
run.parameters: canine gastric mucosa microsomes, pH 6.0, 30 min preincubation at 37° C.; read-out: (H+/K+)-ATPase IC50
pIC50: −log10 of the molar value.
endpoint.name: pIC50

Nc1ncccc1C[S+]([O-])c1nc2ccccc2[nH]1 (stereo not drawn) [Example 81, hydrate]: ≤ 4.00
CCOC(=O)c1ccc(N)c(C[S+]([O-])c2nc3ccccc3[nH]2)c1.CCOC(=O)c1ccc(N)c(C[S+]([O-])c2nc3ccccc3[nH]2)c1.O (stereo not drawn) [Example 71, hemihydrate]: < 4.00

Could you now look at the following molecule, please?
Note down pIC50 recorded for CC(=O)Nc1ccccc1C[S+]([O-])c1nc2ccccc2[nH]1 (stereo not drawn) [Example 6]
< 4.00
